Test system: Mycolicibacterium fortuitum
Assay: Antimicrobial activity against Mycobacterium fortuitum ATCC 19542 after 7 days by resazurin assay
Assay type: functional
Conditions: ATCC 19542, 168 h
readout: MIC (µg/mL)
Give bare numbers, in µg/mL.

Please state MIC for every compound in the list that follows.
1. COc1ccc2nc(C)cc(N3CC(CNC(=O)c4ccc(C(F)(F)F)cc4)OC3=O)c2c1 (stereo not given)
2. COc1ccc2nc(C)cc(NC(=O)CN3CC(CN(C)C)OC3=O)c2c1 (stereo not given)
3. COc1ccc2nc(C)cc(N3CC(CNC(C)=O)OC3=O)c2c1 (stereo not given)
4. CCN(CC)CC1CN(CC(=O)Nc2cc(C)nc3ccc(OC)cc23)C(=O)O1 (stereo not given)
5. COc1ccc2nc(C)cc(NC(=O)CN3CC(CNC4CCCC4)OC3=O)c2c1 (stereo not given)
6. COc1ccc2nc(C)cc(NC(=O)CN3CC(CN4CCC(C)CC4)OC3=O)c2c1 (stereo not given)
7. COc1ccc2nc(C)cc(NC(=O)CN3CC(CN4CCOCC4)OC3=O)c2c1 (stereo not given)

A:
2.5
10
10
10
100
100
10

Quick request: MIC for each listed item, please.
1. COc1ccc2nc(C)cc(NC(=O)CN3CC(CN4CCN(C(C)=O)CC4)OC3=O)c2c1 (stereo not given)
2. COc1ccc2nc(C)cc(NC(=O)CN3CC(CN4CCN(C)CC4)OC3=O)c2c1 (stereo not given)
3. COc1ccc2nc(C)cc(N3CC(CNC(=O)c4ccccc4)OC3=O)c2c1 (stereo not given)

A:
1. 100
2. 10
3. 100
